- measured_on: Cannabinoid receptor 2 (Homo sapiens)
- assay_info: Intrinsic activity at CB2 receptor in human HL60 cells assessed as upregulation of phosphorylated ERK1/2 expression at 75 nM after 15 mins by Western blotting analysis relative to control
- Assay type: cell-based
- assay_setup: HL-60
outcome_measure: Intrinsic activity (%)

{"columns": ["sample_smiles", "outcome_measure", "recorded_measurement"],
 "data": [
  ["Cc1ccc2c(c1)oc1c(C(=O)NN3CCOCC3)nn(-c3ccc(Cl)cc3Cl)c12", "Intrinsic activity", 178],
  ["Cc1ccc2c(c1)oc1c(C(=O)NN3CCCC3)nn(-c3ccc(Cl)cc3Cl)c12", "Intrinsic activity", 185],
  ["Cc1ccc2c(c1)oc1c(C(=O)NC34CC5CC(CC(C5)C3)C4)nn(-c3ccc(Cl)cc3Cl)c12", "Intrinsic activity", 175],
  ["Cc1c(C(=O)c2cccc3ccccc23)c2cccc3c2n1[C@H](CN1CCOCC1)CO3", "Intrinsic activity", 190]
]}

---

- measured_on: Cannabinoid receptor 2 (Mus musculus, UniProt P47936)
- Sequence (P47936 whole entry): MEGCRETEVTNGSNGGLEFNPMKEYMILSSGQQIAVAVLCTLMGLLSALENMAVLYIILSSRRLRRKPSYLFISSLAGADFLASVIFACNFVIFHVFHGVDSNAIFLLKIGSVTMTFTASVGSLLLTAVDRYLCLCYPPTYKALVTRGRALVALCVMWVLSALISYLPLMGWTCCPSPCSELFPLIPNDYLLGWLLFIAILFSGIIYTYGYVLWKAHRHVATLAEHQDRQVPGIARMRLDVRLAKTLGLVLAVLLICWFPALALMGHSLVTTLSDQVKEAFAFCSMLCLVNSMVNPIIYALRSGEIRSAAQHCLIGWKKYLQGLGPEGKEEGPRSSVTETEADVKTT
Ki values, listed per item

{"columns": ["molecule", "Ki"],
 "data": [
  ["Cc1ccc2c(c1)oc1c(C(=O)N[C@H]3C4(C)CCC(C4)C3(C)C)nn(-c3ccc(Cl)cc3Cl)c12 (some centres undefined)", "2.5 nM"],
  ["Cc1ccc2c(c1)oc1c(C(=O)N[C@@H]3CC4CC([C@H]3C)C4(C)C)nn(-c3ccc(Cl)cc3Cl)c12 (some centres undefined)", "3.7 nM"],
  ["Cc1ccc2c(c1)oc1c(C(=O)N[C@@H]3C[C@H](C)CC[C@H]3C(C)C)nn(-c3ccc(Cl)cc3Cl)c12", "2.3 nM"],
  ["Cc1ccc2c(c1)oc1c(C(=O)N[C@H]3CC4CC[C@]3(C)C4(C)C)nn(-c3ccc(Cl)cc3Cl)c12", "3.5 nM"]
]}

---

- Species: Mus musculus
- assay_info: Selectivity ratio of Ki for CB1 receptor in CD1 mouse cerebellum-less brain homogenate to Ki for CB2 receptor in CD1 mouse spleen homogenate
- Assay type: tissue-based

{"columns": ["molecule", "Ratio Ki"],
 "data": [
  ["Cc1ccc2c(c1)oc1c(C(=O)NN3CCOCC3)nn(-c3ccc(Cl)cc3Cl)c12", 108],
  ["Cc1ccc2c(c1)oc1c(C(=O)N[C@@H]3C[C@H](C)CC[C@H]3C(C)C)nn(-c3ccc(Cl)cc3Cl)c12", 16.6],
  ["Cc1ccc2c(c1)oc1c(C(=O)NN3CCCC3)nn(-c3ccc(Cl)cc3Cl)c12", 92.3],
  ["Cc1ccc2c(c1)oc1c(C(=O)N[C@H]3CC4CC[C@]3(C)C4(C)C)nn(-c3ccc(Cl)cc3Cl)c12", 134],
  ["Cc1ccc2c(c1)oc1c(C(=O)NC3CCCCC3)nn(-c3ccc(Cl)cc3Cl)c12", 79.9],
  ["Cc1ccc2c(c1)oc1c(C(=O)N[C@H]3C4(C)CCC(C4)C3(C)C)nn(-c3ccc(Cl)cc3Cl)c12 (stereo not given in full)", 103],
  ["Cc1ccc2c(c1)oc1c(C(=O)N[C@@H]3CC4CC([C@H]3C)C4(C)C)nn(-c3ccc(Cl)cc3Cl)c12 (stereo not given in full)", 648],
  ["Cc1ccc2c(c1)oc1c(C(=O)NN3CCCCC3)nn(-c3ccc(Cl)cc3Cl)c12", 139],
  ["Cc1ccc2c(c1)oc1c(C(=O)NC34CC5CC(CC(C5)C3)C4)nn(-c3ccc(Cl)cc3Cl)c12", 13],
  ["Cc1ccc2c(c1)oc1c(C(=O)NC3C4CC5CC(C4)CC3C5)nn(-c3ccc(Cl)cc3Cl)c12 (stereo not given)", 30.7]
]}

---

pKi: −log10 of the molar value.
Cannabinoid receptor 1 (Mus musculus) pKi data
Sequence (P47746 whole entry): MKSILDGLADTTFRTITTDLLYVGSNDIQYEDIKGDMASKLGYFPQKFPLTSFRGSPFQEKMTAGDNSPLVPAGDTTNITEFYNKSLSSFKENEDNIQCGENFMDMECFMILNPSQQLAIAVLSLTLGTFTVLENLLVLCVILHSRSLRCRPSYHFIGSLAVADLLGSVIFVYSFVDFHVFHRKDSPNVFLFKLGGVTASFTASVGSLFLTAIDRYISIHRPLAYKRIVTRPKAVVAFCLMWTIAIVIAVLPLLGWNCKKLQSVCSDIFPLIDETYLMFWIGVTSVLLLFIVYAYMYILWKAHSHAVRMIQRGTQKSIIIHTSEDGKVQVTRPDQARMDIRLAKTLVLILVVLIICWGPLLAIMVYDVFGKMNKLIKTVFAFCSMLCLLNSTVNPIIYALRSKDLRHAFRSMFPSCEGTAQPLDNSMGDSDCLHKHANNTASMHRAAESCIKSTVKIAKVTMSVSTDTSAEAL
outcome_measure: pKi

{"columns": ["compound", "measured_on", "outcome_measure", "recorded_measurement"],
 "data": [
  ["Cc1ccc2c(c1)oc1c(C(=O)N[C@H]3CC4CC[C@]3(C)C4(C)C)nn(-c3ccc(Cl)cc3Cl)c12", "Cannabinoid receptor 1 (Mus musculus)", "pKi", 6.33],
  ["Cc1ccc2c(c1)oc1c(C(=O)N[C@@H]3CC4CC([C@H]3C)C4(C)C)nn(-c3ccc(Cl)cc3Cl)c12 (some centres undefined)", "Cannabinoid receptor 1 (Mus musculus)", "pKi", 5.62],
  ["Cc1ccc2c(c1)oc1c(C(=O)N[C@@H]3C[C@H](C)CC[C@H]3C(C)C)nn(-c3ccc(Cl)cc3Cl)c12", "Cannabinoid receptor 1 (Mus musculus)", "pKi", 7.42],
  ["Cc1ccc2c(c1)oc1c(C(=O)N[C@H]3C4(C)CCC(C4)C3(C)C)nn(-c3ccc(Cl)cc3Cl)c12 (some centres undefined)", "Cannabinoid receptor 1 (Mus musculus)", "pKi", 6.59]
]}

Measured values drawn from ChEMBL document CHEMBL3286155 for this set.
